Entries and their TGI
Test system: OVCAR-8 ovarian
Experiment: NCI tumour cell line growth inhibition, 48 h

{"compound": "COCCOCCOCc1n(Cc2ccc3ccccc3c2)c2ccccc2[n+]1Cc1ccc2ccccc2c1", "qualifying.sign": "=", "TGI (µM)": 1.74}
{"compound": "Cc1cc(C)c2c(n1)S(=O)(=O)N(CCCN1CCN(c3cccc(Cl)c3)CC1)/C(=C(\\O)c1ccccc1)C2=O", "qualifying.sign": ">", "TGI (µM)": 100}
{"compound": "CCOC(=O)C(Cc1c[nH]c2cc(N(CCO)CCO)ccc12)(NC(C)=O)C(=O)OCC", "qualifying.sign": ">", "TGI (µM)": 1000}
{"compound": "COc1ccc(C(C)c2cc(OC)c(OC)c(OC)c2)cc1 (stereo not given)", "qualifying.sign": ">", "TGI (µM)": 50}
{"compound": "COC(=O)C1CCC(=O)N1CN(C(C)=O)c1cc(OC)ccc1OC (stereo not given)", "qualifying.sign": ">", "TGI (µM)": 100}
{"compound": "Cc1c(Cl)c(=O)oc2cc(OC/C=C3\\CCC(=O)O3)ccc12", "qualifying.sign": "=", "TGI (µM)": 47.2}
{"compound": "Cc1cc(C(=O)/C=C/c2ccc[nH]2)ccc1-n1ccc(C(F)(F)F)n1", "qualifying.sign": ">", "TGI (µM)": 100}
{"compound": "c1cc(-c2ccc(-c3nc4ccc(C5=NCCN5)cc4s3)s2)ccc1C1=NCCN1", "qualifying.sign": "=", "TGI (µM)": 0.801}
{"compound": "O=C1C(=C2CCCC2)CCC1CN1CCCCC1 (stereo not given)", "qualifying.sign": "=", "TGI (µM)": 43.4}
{"compound": "O=C(Nc1cccc(-n2cc(-c3ccncc3)c(-c3ccc(O)c(Cl)c3)n2)c1)c1ccc2c(c1)OCCO2", "qualifying.sign": ">", "TGI (µM)": 100}

----------
Entries and their GI50
Tested on: MOLT-4 leukemia
Assay: NCI tumour cell line growth inhibition, 48 h

{"molecule": "Cc1ccc(/C=C2/N=C(N/N=C\\C(O)C(O)C(O)CO)NC2=O)cc1 (stereo not given)", "GI50": "46.2 µM"}
{"molecule": "NCCCOc1cc2ccccc2cc1C(=O)Nc1ccc(Cl)cc1OC(=O)c1cc2ccccc2cc1OCCCN", "GI50": "0.468 µM"}
{"molecule": "CCN(CC)c1c(-c2ccccc2)n[nH]c1C(=O)OC", "GI50": "18.6 µM"}
{"molecule": "CC(C)(C)c1cc(C(=O)Nc2ccc(C(=O)NCCN)cc2)cc(C(C)(C)C)c1", "GI50": "2.63 µM"}
{"molecule": "CCCCCCCCCC[C@@H](O)[C@@H]1CC[C@@H]([C@@H]2CC[C@@H]([C@@H](O)CCCCCCCCCC[C@H](O)CC3=CC(C)OC3=O)O2)O1 (stereo not given in full)", "GI50": "2.93 µM"}
{"molecule": "C/C=C/C/C=C/[C@H](C)C[C@H](O)[C@@H]1C[C@@H]2O[C@H]2/C=C/[C@@H]2OC(C)(C)O[C@H]2/C=C/C[C@H](C)CC(=O)O1", "GI50": "3.94 µM"}
{"molecule": "Nc1nonc1-c1nc2ccccc2n1Cc1ccc(F)cc1", "GI50": "5.5 µM"}
{"molecule": "N#Cc1cnc2cc(OC[C@@H](O)CO)c(NC(=O)C3CCCC3)cc2c1Nc1ccc(OCc2cccc(F)c2)c(Cl)c1", "GI50": "1.49 µM"}
{"molecule": "C=C1c2ccccc2C(=O)c2c1c1c(C(=O)OC)c(OC(=O)OCc3ccc([N+](=O)[O-])cc3)ccc1n2Cc1ccccc1", "GI50": "2.6 µM"}
{"molecule": "O=C(O)c1cc2ccccc2c2c3c(ccc12)OCO3", "GI50": "192 µM"}

----------
System: M19-MEL melanoma
Assay: NCI tumour cell line growth inhibition, 48 h
Entries and their TGI
test.readout: TGI

{"compound": "Cc1cccc(C)c1NC(=O)CCC/C(CC(=O)c1ccc(F)cc1)=N\\NC(=O)C(=O)NN", "observed.value": "> 100 µM"}
{"compound": "O=C1N2Cc3c4ccc5c3CN3C(=O)N6Cc7c(ccc(c7CN1C6(c1ccccc1)C23c1ccccc1)OCCOCCOc1cc(Br)c(Br)cc1OCCOCCO4)OCCOCCOc1cc(Br)c(Br)cc1OCCOCCO5 (stereo unspecified)", "observed.value": "> 100 µM"}
{"compound": "CC1=CC(C)(c2c[nH]c3ccccc23)CC(C)(C)c2c1[nH]c1ccccc21 (stereo unspecified)", "observed.value": "43.7 µM"}
{"compound": "C1OC1CN1CCN(CC2CO2)CC1 (stereo unspecified)", "observed.value": "> 100 µM"}
{"compound": "O=C1CC(c2c(-c3ccccc3)[nH]c3ccccc23)C(=O)N1c1ccccc1 (stereo unspecified)", "observed.value": "> 100 µM"}
{"compound": "CN(C)CCC(/C=C/c1ccccc1)=N\\Nc1ccc(Cl)c(Cl)c1", "observed.value": "15 µM"}

----------
Entries and their TGI
Tested on: HS 578T breast
Experiment: NCI tumour cell line growth inhibition, 48 h
test.readout: TGI

{"compound": "COC1CC(OC2CCC3(C)C(=CCC4C3C(OC(C)=O)C(OC(=O)CC(C)C)C3(C)C(C(C)=O)CCC43O)C2)OC(C)C1OC1CC(OC)C(OC2CC(OC)C(OC3OC(C)C(O)C(OC)C3O)C(C)O2)C(C)O1 (stereo unspecified)", "test.readout": "TGI", "observed.value": "> 100 µM"}
{"compound": "CC1C2CCC3C(O)C2(CC(O)C2(O)C1CC(O)C2(C)C)CC3(C)O (stereo unspecified)", "test.readout": "TGI", "observed.value": "> 100 µM"}
{"compound": "CN1CC(c2ccccc2)C(O)(C2(c3ccccc3)CN(C)CC(c3ccccc3)C2=O)C(c2ccccc2)C1 (stereo unspecified)", "test.readout": "TGI", "observed.value": "94.2 µM"}
{"compound": "COC(=O)CN(CC(O)C(NC(C)=O)C(O)C=O)C(=O)OCc1ccccc1 (stereo unspecified)", "test.readout": "TGI", "observed.value": "> 100 µM"}
{"compound": "CN(CCO)Cc1ncccc1O", "test.readout": "TGI", "observed.value": "> 100 µM"}
{"compound": "O=c1[nH]nc(-c2ccccc2)n1/N=C/c1ccco1", "test.readout": "TGI", "observed.value": "> 100 µM"}
{"compound": "Cc1cc(C)c2c(n1)S(=O)(=O)N(CCCN1CCN(c3cccc(Cl)c3)CC1)/C(=C(\\O)c1ccccc1)C2=O", "test.readout": "TGI", "observed.value": "> 100 µM"}
{"compound": "C=C1C(=O)O[C@H]2C1C[C@@H](O)/C(C)=C/CC[C@@]1(C)O[C@H]21 (stereo partly specified)", "test.readout": "TGI", "observed.value": "> 89.5 µM"}
{"compound": "N#Cc1cnc2cc(OC[C@@H](O)CO)c(NC(=O)C3CCCC3)cc2c1Nc1ccc(OCc2cccc(F)c2)c(Cl)c1", "test.readout": "TGI", "observed.value": "1.43 µM"}
{"compound": "O=C(O)Cc1ccc(Nc2nc3ccccc3nc2C(=O)O)cc1", "test.readout": "TGI", "observed.value": "> 100 µM"}
{"compound": "Cc1ccc(S(=O)(=O)N2CCCSCCSCCCN(S(=O)(=O)c3ccc(C)cc3)CC2)cc1", "test.readout": "TGI", "observed.value": "> 100 µM"}

----------
Tested on: SK-MEL-2 melanoma
Test: NCI tumour cell line growth inhibition, 48 h; in the data active means GI50 below about 0.43 µM; inactive means the rest
Possible outcomes: t (active), f (inactive)

{"molecule": "CNC(=O)c1cc(Oc2cccc3nc(NC(=O)Nc4cc(C(F)(F)F)cc(C(F)(F)F)c4)ccc23)ccn1", "test.system": "SK-MEL-2 melanoma", "discrete.label": "f"}
{"molecule": "C=C1c2ccccc2C(=O)c2c1c1c(C(=O)OC)c(OC(=O)OCc3ccc([N+](=O)[O-])cc3)ccc1n2Cc1ccccc1", "test.system": "SK-MEL-2 melanoma", "discrete.label": "f"}
{"molecule": "COc1cc(-n2cc(-c3ccccc3)[nH]c2=O)cc(OC)c1OC", "test.system": "SK-MEL-2 melanoma", "discrete.label": "f"}
{"molecule": "Nc1ccccc1C#C/C=C\\C#CC#C/C=C\\C#Cc1ccccc1N", "test.system": "SK-MEL-2 melanoma", "discrete.label": "f"}
{"molecule": "CN(C)C(=O)OCc1nc2c(N3CCOCC3)nc(-c3ccccc3)nc2n1C", "test.system": "SK-MEL-2 melanoma", "discrete.label": "f"}
{"molecule": "O=C1/C=C/[C@@H](O)[C@@H]2C[C@@H](O)C[C@H]2/C=C/CCC[C@H](CCc2ccc3ncccc3c2)O1", "test.system": "SK-MEL-2 melanoma", "discrete.label": "t"}
{"molecule": "CC(C)(C)OC(=O)NCCCCn1c2c(c3ccccc3c1=O)C(=O)c1ccccc1-2", "test.system": "SK-MEL-2 melanoma", "discrete.label": "f"}
{"molecule": "Cc1cc(C(=O)/C=C/c2ccc[nH]2)ccc1-n1ccc(C(F)(F)F)n1", "test.system": "SK-MEL-2 melanoma", "discrete.label": "f"}
{"molecule": "Cc1cc(-c2nnc(/C=C/c3ccc4c(c3)OCO4)o2)n[nH]1", "test.system": "SK-MEL-2 melanoma", "discrete.label": "f"}
{"molecule": "N#Cc1cnc2cc(OC[C@@H](O)CO)c(NC(=O)C3CCCC3)cc2c1Nc1ccc(OCc2cccc(F)c2)c(Cl)c1", "test.system": "SK-MEL-2 melanoma", "discrete.label": "f"}
{"molecule": "NCCCCCNc1noc(Cc2c[nH]c3cc(Br)ccc23)n1", "test.system": "SK-MEL-2 melanoma", "discrete.label": "f"}
{"molecule": "CN1CCN(c2ccc(OC(F)(F)F)c(Nc3ncc4c(n3)-c3c(c(C(N)=O)nn3CCO)CC4)c2)CC1", "test.system": "SK-MEL-2 melanoma", "discrete.label": "t"}
{"molecule": "CO[C@@H]1CCN(c2nccc(Nc3cc4c(C(C)C)ccc(N5CC(CS(C)(=O)=O)[C@H]5C)c4cn3)n2)C[C@@H]1F (some centres undefined)", "test.system": "SK-MEL-2 melanoma", "discrete.label": "f"}
{"molecule": "Cc1ccc(C(=O)NCCCOc2ccc(N3C(N)=NC(N)=NC3(C)C)cc2Cl)cc1S(=O)(=O)F", "test.system": "SK-MEL-2 melanoma", "discrete.label": "f"}
